meta.source: the supplement of paper PMC8728848

Parameter: glycan array binding signal (z-score). Scope: all listed entries.
- experimental system: Gal3S6S(b1-4)GlcNAc6S
- assay name: glycan array binding signal (z-score within array); higher = stronger binding
- run parameters: glycan notation: IUPAC condensed, linker removed
Only a selection was taken, and the strongest signals are over-represented in it overall.

FGF1 (Homo sapiens), P05230 (protein) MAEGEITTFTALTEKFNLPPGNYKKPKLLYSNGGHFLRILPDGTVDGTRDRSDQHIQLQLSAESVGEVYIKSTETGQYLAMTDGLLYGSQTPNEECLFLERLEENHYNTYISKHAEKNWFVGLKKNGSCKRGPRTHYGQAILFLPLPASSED    1.04
PpFlo3 (Pichia pastoris) (protein) MGSSHHHHHHSSGLVPRGSHMQESGNGTTSDTAYACDIGATPFDGFNATIYQYQASDDNSIQDPVFMSTGYLQRNQLHSTTGVTNPGFNIFTAGVATTTLYGIPNVNYQNMLLELKGYFRADASGNYGLSLRNIDDSAILFFGRETAFECCNENLIPLDEAPTDYSLFTIKEGEASTNPDSYTYTQYLEAGRYYPVRTFFANIRTRAVFNFTMTLPDGSELTDFQNYIFQFGALNQ    -0.269

Can you look up the measured glycan array binding signal (z-score) of AAA (Anguilla anguilla), Q7SIC1 (protein) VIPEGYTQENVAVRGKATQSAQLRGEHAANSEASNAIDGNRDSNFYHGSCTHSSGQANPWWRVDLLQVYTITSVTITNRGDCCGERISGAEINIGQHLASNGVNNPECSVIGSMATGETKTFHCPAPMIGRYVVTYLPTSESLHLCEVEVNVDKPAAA for me? -0.044
